- SYSTEM TESTED: HLA-B*54:01
- METHOD: IEDB peptide-MHC binding, purified MHC/competitive/radioactivity; bounds were set here for any values at or beyond the usual limits of such assays
- RECORDED CONDITIONS: source organism: Human papillomavirus type 6b
EXPERIMENTAL ENDPOINT: IC50 (nM)
Give bare numbers, in nM.

Consider the sequence shown here: `IPFLTKFKL` What is its recorded IC50?
833

###

- SYSTEM TESTED: HLA-B*51:01
- METHOD: IEDB peptide-MHC binding, purified MHC/competitive/radioactivity; bounds were set here for any values at or beyond the usual limits of such assays
- RECORDED CONDITIONS: source organism: human papillomavirus 18
EXPERIMENTAL ENDPOINT: IC50 (µM)
Answers are plain numbers, in µM.

Consider the sequence shown here: `QPFILYAHI` What is its recorded IC50?
0.026

###

- SYSTEM TESTED: HLA-B*53:01
- METHOD: IEDB peptide-MHC binding, purified MHC/competitive/radioactivity; filed as Kd, often an IC50 or EC50 that approximates it; bounds were set here for any values at or beyond the usual limits of such assays
- RECORDED CONDITIONS: source organism: Candida albicans
EXPERIMENTAL ENDPOINT: Kd (µM)
Answers are plain numbers, in µM.

Recorded Kd for `FPRFKFVWV` with HLA-B*53:01, please?
3.51

###

- SYSTEM TESTED: HLA-B*54:01
- METHOD: IEDB peptide-MHC binding, purified MHC/competitive/radioactivity; bounds were set here for any values at or beyond the usual limits of such assays
- RECORDED CONDITIONS: source organism: Human T-cell lymphotrophic virus type 1 (Caribbean isolate)
EXPERIMENTAL ENDPOINT: pIC50
Give bare numbers, as −log10 of the molar value.

Recorded pIC50 for `WPLLPHVIF` with HLA-B*54:01, please?
7.20

###

- SYSTEM TESTED: HLA-B*51:01
- METHOD: IEDB peptide-MHC binding, purified MHC/competitive/radioactivity; bounds were set here for any values at or beyond the usual limits of such assays
- RECORDED CONDITIONS: source organism: Homo sapiens
pIC50: −log10 of the molar value.
Assign 1 to entries whose pIC50 meets or exceeds 7; assign 0 to the rest.

Check the entry `LPFRNCPRF` : does pIC50 equal or exceed 7?
1

Same for `EPGPVTAQV`
1

Same for `FPPEGVSIW`
1

Same for `LPSPACQLV`
1

Same for `LPTNASLSF`
0

Same for `CPLERFAEL`
1

Same for `MPNQAQMRI`
1

###

Answer each item with its documented pKd.
- SYSTEM TESTED: HLA-B*51:01
- METHOD: IEDB peptide-MHC binding, purified MHC/competitive/radioactivity; filed as Kd, often an IC50 or EC50 that approximates it; bounds were set here for any values at or beyond the usual limits of such assays
- RECORDED CONDITIONS: source organism: Homo sapiens
Give bare numbers, as −log10 of the molar value.

Below, each entry is followed by its recorded pKd result.
# BIOPOLYMER SEQUENCE, SYSTEM TESTED, EXPERIMENTAL ENDPOINT, RESULT
records = [
    ("HPEDTGQVF", "HLA-B*51:01", "pKd", 5.71),
    ("IPLYRNGDF", "HLA-B*51:01", "pKd", 5.26),
    ("SPSCPLERF", "HLA-B*51:01", "pKd", 5.72),
]

Consider the sequence shown here: `IPEPEGPDA` What is its recorded pKd?
5.26

###

- SYSTEM TESTED: HLA-B*54:01
- METHOD: IEDB peptide-MHC binding, purified MHC/competitive/radioactivity; bounds were set here for any values at or beyond the usual limits of such assays
- RECORDED CONDITIONS: source organism: Human T-cell leukemia virus type I
EXPERIMENTAL ENDPOINT: pIC50
One number for each entry, as −log10 of the molar value.

Consider the sequence shown here: `LPTTLFQPY` What is its recorded pIC50?
9.08

###

Answer each item with its documented pIC50.
- SYSTEM TESTED: HLA-B*07:02
- METHOD: IEDB peptide-MHC binding, purified MHC/competitive/radioactivity; bounds were set here for any values at or beyond the usual limits of such assays
- RECORDED CONDITIONS: source organism: Homo sapiens
Answers are plain numbers, as −log10 of the molar value.

# BIOPOLYMER SEQUENCE, SYSTEM TESTED, RESULT
measured = [
    ("LPQPPICTI", "HLA-B*07:02", 6.62),
]

Hey, can you go through the list below and give me pIC50 for every item?
1. EPGPVTAQV
2. MPNQAQMRI
3. IPLYRNGDF
4. LPSIPVHPI

1. 6.04
2. 6.22
3. 7.22
4. 7.17

Hey, can you go through the list below and give me pIC50 for every item?
1. SPATLLLVL
2. VPLAHSSSA
3. CPLERFAEL
4. SPSCPLERF

8.00
6.76
7.17
6.08

###

- SYSTEM TESTED: HLA-B*07:02
- METHOD: IEDB peptide-MHC binding, purified MHC/competitive/radioactivity; filed as Kd, often an IC50 or EC50 that approximates it; bounds were set here for any values at or beyond the usual limits of such assays
- RECORDED CONDITIONS: source organism: Human papillomavirus type 6b
EXPERIMENTAL ENDPOINT: pKd
Give bare numbers, as −log10 of the molar value.

Consider the sequence shown here: `IPFLTKFKL` What is its recorded pKd?
5.62

###

- SYSTEM TESTED: HLA-B*07:02
- METHOD: IEDB peptide-MHC binding, purified MHC/competitive/radioactivity; bounds were set here for any values at or beyond the usual limits of such assays
- RECORDED CONDITIONS: source organism: Human immunodeficiency virus 1
EXPERIMENTAL ENDPOINT: pIC50
Numbers only, as −log10 of the molar value.

Below, each entry is followed by its recorded pIC50 result.
# BIOPOLYMER SEQUENCE, SYSTEM TESTED, RESULT
rows = [
    ("FPVRPQVPI", "HLA-B*07:02", 7.65),
    ("FPVRPQVPM", "HLA-B*07:02", 8.42),
    ("FPVRPQVPT", "HLA-B*07:02", 6.42),
]

Hey, can you go through the list below and give me pIC50 for every item?
1. FPVRPQVPC
2. FPVRPQVPQ

[6.42, 6.42]

###

- SYSTEM TESTED: HLA-B*53:01
- METHOD: IEDB peptide-MHC binding, purified MHC/competitive/radioactivity; bounds were set here for any values at or beyond the usual limits of such assays
- RECORDED CONDITIONS: source organism: Human papillomavirus type 6b
EXPERIMENTAL ENDPOINT: IC50 (nM)
Numbers only, in nM.

Consider the sequence shown here: `IPFLTKFKL` What is its recorded IC50?
581

###

- SYSTEM TESTED: HLA-B*53:01
- METHOD: IEDB peptide-MHC binding, purified MHC/competitive/radioactivity; filed as Kd, often an IC50 or EC50 that approximates it; bounds were set here for any values at or beyond the usual limits of such assays
- RECORDED CONDITIONS: source organism: Human T-cell leukemia virus type I
EXPERIMENTAL ENDPOINT: Kd (µM)
One number for each entry, in µM.

Consider the sequence shown here: `LPTTLFQPY` What is its recorded Kd?
11.6

###

Answer each item with its documented IC50.
- SYSTEM TESTED: HLA-B*54:01
- METHOD: IEDB peptide-MHC binding, purified MHC/competitive/radioactivity; bounds were set here for any values at or beyond the usual limits of such assays
- RECORDED CONDITIONS: source organism: Human immunodeficiency virus 1
Give bare numbers, in nM.

Below, each entry is followed by its recorded IC50 result.
# BIOPOLYMER SEQUENCE, RESULT
records = [
    ("FPVRPQVPT", 1.8),
    ("FPVRPQVPI", 1.6),
    ("FPVRPQVPM", 79),
]

Hey, can you go through the list below and give me IC50 for every item?
1. FPVRPQVPQ
2. FPVRPQVPC

79
65.8

###

- SYSTEM TESTED: HLA-B*53:01
- METHOD: IEDB peptide-MHC binding, purified MHC/competitive/radioactivity; filed as Kd, often an IC50 or EC50 that approximates it; bounds were set here for any values at or beyond the usual limits of such assays
- RECORDED CONDITIONS: source organism: human papillomavirus 11
EXPERIMENTAL ENDPOINT: Kd

# BIOPOLYMER SEQUENCE, Kd
measured = [
    ("SPISNVANA", "≥ 25 µM"),
]

// switching to the query sequence
Consider the sequence shown here: `QPKKVKRRL` What is its recorded Kd?
≥ 25 µM

// data source = the Immune Epitope Database (IEDB)
